Provenance of the data: patent US5348952A

target: porcine pancreatic elastase, PPE (Sus scrofa, UniProt P00772); experiment: Inhibition of PPE activity (Protocol A); assay type: biochemical; conditions: 30° C., 0.05M pH 7.4 phosphate buffer, 2.5% MeCN; 50% reduction of enzyme activity 6.4 minutes after zero time; read-out: PPE-inhibitory activity IC50 (converted)
Sequence (P00772 27-266): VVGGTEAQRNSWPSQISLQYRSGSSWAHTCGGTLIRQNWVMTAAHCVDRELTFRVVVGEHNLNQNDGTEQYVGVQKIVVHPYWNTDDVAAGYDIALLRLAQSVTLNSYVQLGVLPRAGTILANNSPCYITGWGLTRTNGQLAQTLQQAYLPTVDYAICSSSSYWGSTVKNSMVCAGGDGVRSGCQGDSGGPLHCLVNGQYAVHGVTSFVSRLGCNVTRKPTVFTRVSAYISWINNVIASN
I'd be grateful if you could share measured IC50 for these entries.
A number alone suffices; assume µM.

Any idea what its IC50 is? The compound is CC1=C(C(=O)C(C)(C)C)N2C(=O)[C@H](Cl)[C@H]2S(=O)(=O)C1 [Reference A, reference compound] 6.54

// query IC50 value for entry CO[C@H]1C(=O)N2C(C(=O)C(C)(C)C)=C(C)CS(=O)(=O)[C@H]12 [Reference B, reference compound] 6.64

Query (compound): CC1=C(C(=O)OC(C)(C)C)N2C(=O)[C@H](Cl)[C@H]2S(=O)(=O)C1Sc1nc2ccccc2s1 (stereo partly drawn) [Reference C, reference compound] ; field requested: IC50 4.11

* * *

biological target: human leukocyte elastase (HLE) (Homo sapiens, UniProt P08246); construct: purchased Calbiochem Lot 702038; assay: Inhibition of HLE activity, kinetic parameters (Protocol B); format: biochemical; conditions: 37° C., 0.027M pH 7.4 phosphate buffer, 1% DMSO, 1% MeCN; read-out: "Efficacy" Kon (rate of formation of the HLE-inhibitor complex)
Measurement Kind: kon
Answer with the figure and its unit, nothing else.

Which value of kon has been reported for COC(=O)C1=C(C)C(Sc2nnnn2C)S(=O)(=O)[C@@H]2[C@@H](OC)C(=O)N12 (stereo partly shown) [Reference D, reference compound] in the records? 500 M⁻¹ s⁻¹

I am curious: what kon value has been reported for CO[C@H]1C(=O)N2C(C(=O)C(C)(C)C)=C(C)C(Sc3nnnn3CCCC(=O)O)S(=O)(=O)[C@H]12 (stereo partly shown) ? 11000 M⁻¹ s⁻¹

Data request, read-out kon, for CO[C@H]1C(=O)N2C(C(=O)C(C)(C)C)=C(C)C(Sc3nc(=O)c(O)nn3C)S(=O)(=O)[C@H]12 (stereo partly shown) 25000 M⁻¹ s⁻¹

For the compound shown here, CO[C@H]1C(=O)N2C(C(=O)C(C)(C)C)=C(C)C(Sc3nnnn3C)S(=O)(=O)[C@H]12 (stereo partly shown) , give the reported kon. 90000 M⁻¹ s⁻¹

* * *

target: UniProt P00772; test: Inhibition of PPE activity (Protocol A); type: biochemical; details: 30° C., 0.05M pH 7.4 phosphate buffer, 2.5% MeCN; 50% reduction of enzyme activity 6.4 minutes after zero time; read-out: PPE-inhibitory activity IC50 (converted)
Measurement Kind: IC50 (nM)
Please reply with the bare figure in nM and do not write the unit itself.

What does the record list as IC50 for CO[C@H]1C(=O)N2C(C(=O)C(C)(C)C)=C(C)C(Sc3nc(=O)c(O)nn3C)S(=O)(=O)[C@H]12 (some centres unmarked) ? 65.4

Value lookup for IC50; key = CC1=C(C(=O)C(C)(C)C)N2C(=O)[C@H](Cl)[C@H]2S(=O)(=O)C1Sc1nc(=O)c(OC(c2ccccc2)c2ccccc2)nn1C (some centres unmarked) 71.5

What value of IC50 has been recorded for this entry: CC1=C(C(=O)C(C)(C)C)N2C(=O)[C@H](Cl)[C@H]2S(=O)(=O)C1Sc1nc(=O)c(O)nn1C (some centres unmarked) 75.6

# input molecule: CO[C@H]1C(=O)N2C(C(=O)C(C)(C)C)=C(C)C(Sc3nnnn3C)S(=O)(=O)[C@H]12 (some centres unmarked) ; wanted: its IC50 96.3

What IC50 value was documented for this molecule, COC(=O)C1=C(C)C(Sc2nnnn2C)S(=O)(=O)[C@@H]2[C@@H](OC)C(=O)N12 (some centres unmarked) [Reference D, reference compound] ? 12800

* * *

Kindly state Ki for each of the entries shown.
Biological target: human leukocyte elastase (HLE) (Homo sapiens, UniProt P08246)
Sequence (P08246 30-267): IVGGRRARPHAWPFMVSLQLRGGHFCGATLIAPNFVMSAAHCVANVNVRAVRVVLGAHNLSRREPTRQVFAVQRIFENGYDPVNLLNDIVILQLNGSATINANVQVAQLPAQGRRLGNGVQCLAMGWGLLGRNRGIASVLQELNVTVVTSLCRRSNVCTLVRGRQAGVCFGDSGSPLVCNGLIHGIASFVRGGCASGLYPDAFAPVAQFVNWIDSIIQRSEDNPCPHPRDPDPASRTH
Assay: Inhibition of HLE activity, kinetic parameters (Protocol B)
Details: 37° C., 0.027M pH 7.4 phosphate buffer, 1% DMSO, 1% MeCN; steady state; read-out: "Potency" K1^ (apparent dissociation constant of the HLE-inhibitor complex at steady state, Ki^ss)
Quick note: give the figure in nM, leave out the unit.

Form: Entry = COC(=O)C1=C(C)C(Sc2nnnn2C)S(=O)(=O)[C@@H]2[C@@H](OC)C(=O)N12 (stereo partly shown) [Reference D, reference compound] | System = human leukocyte elastase (HLE) (Homo sapiens, UniProt P08246) | Ki = ____ 38

Query the reported Ki for human leukocyte elastase (HLE) (Homo sapiens, UniProt P08246); item: CO[C@H]1C(=O)N2C(C(=O)C(C)(C)C)=C(C)C(Sc3nc(=O)c(O)nn3C)S(=O)(=O)[C@H]12 (stereo partly shown) [n° 9] 26

Notebook entry, human leukocyte elastase (HLE) (Homo sapiens, UniProt P08246) assay: Ki of CO[C@H]1C(=O)N2C(C(=O)C(C)(C)C)=C(C)C(Sc3nnnn3CCCC(=O)O)S(=O)(=O)[C@H]12 (stereo partly shown) [n° 7] = ? 18

Look up Ki with human leukocyte elastase (HLE) (Homo sapiens, UniProt P08246) for this compound: CO[C@H]1C(=O)N2C(C(=O)C(C)(C)C)=C(C)C(Sc3nnnn3C)S(=O)(=O)[C@H]12 (stereo partly shown) [n° 1] 8.3
